measuredOn: Genome polyprotein (dengue virus type 2, UniProt P29990)
observationType: Ki (µM)
Give bare numbers, in µM.

Look up Ki with Genome polyprotein (dengue virus type 2, UniProt P29990) for this compound: `O=C(Nc1nc2cc(O)c(O)cc2s1)c1ccc(I)cc1` 7.67

---

measuredOn: Genome polyprotein (dengue virus type 2)
assayText: Inhibition of DENV2 NS2B-NS3 protease expressed in Escherichia coli BL21(DE3) using Boc-Gly-Arg-Arg-AMC as substrate at 20 uM by FRET assay
Quick rule: inhibition of at least 30% means Y, below that means N.

[
  {
    "structureNotation": "Cc1ccc(S(=O)(=O)N[C@@H](Cc2ccccc2)C(=O)Nc2nc3cc(O)c(O)cc3s2)cc1",
    "assignedLabel": "Y"
  }
]

Decide: inhibition of `O=C(Nc1nc2cc(O)c(O)cc2s1)C(c1ccc(O)cc1)c1ccc(O)cc1` >= 30%? Y

Exam item: decide whether the reported inhibition for `Cc1ccc(S(=O)(=O)N[C@H](C(=O)Nc2nc3cc(O)c(O)cc3s2)C(C)(C)C)cc1` is at least 30%. Y

In plain terms: is recorded inhibition at least 30% for `Cc1ccc(S(=O)(=O)N[C@H](C)C(=O)Nc2nc3cc(O)c(O)cc3s2)cc1` ? N

Confirm if inhibition reported for the compound `O=C(CCNC(=O)c1ccccc1)Nc1nc2cc(O)c(O)cc2s1` is 30% or above. N

Has `O=C(Nc1nc2ccc([N+](=O)[O-])cc2s1)c1ccc(I)cc1` a recorded inhibition greater than or equal to 30%? Y

Tell me whether inhibition is at least 30% here: `O=C(O)C[C@H](NC(=O)c1ccccc1)C(=O)Nc1nc2cc(O)c(O)cc2s1` Y

Hi, just wondering whether `O=C(Nc1ccccc1)[C@@H]1CCCN1C(=O)c1cnc2cc(O)c(O)cc2c1` shows inhibition of 30% or higher. N

---

measuredOn: UniProt P00734
assayText: Inhibition of Thrombin (unknown origin) assessed as residual enzyme activity at 20 uM by FRET assay relative to control
Activity under 90% gets 1.0, anything at or over 90% gets 0.0.

Previously resolved entries follow.
[
  {
    "structureNotation": "O=C(Nc1ccccc1)c1cc2cc(O)c(O)cc2o1",
    "assignedLabel": 0.0
  },
  {
    "structureNotation": "O=C(Nc1nc2cc(O)c(O)cc2s1)c1ccc(I)cc1",
    "assignedLabel": 1.0
  },
  {
    "structureNotation": "O=C(Nc1ccccc1)[C@@H]1CCCN1C(=O)c1cc2cc(O)c(O)cc2o1",
    "assignedLabel": 1.0
  }
]

Answer whether the molecule `O=C(Nc1ccccc1)[C@@H]1CCCCN1C(=O)c1cc2cc(O)c(O)cc2o1` has Activity strictly less than 90% 0.0

Lab note: confirm whether the reported Activity for this molecule is below 90%, equality not counting. molecule: `O=C(Nc1nc2cc(O)c(O)cc2s1)C(c1ccccc1)c1ccccc1` 0.0

Here's an entry: `O=C(Nc1nc2cc(O)c(O)cc2s1)c1ccccc1` . Is its Activity below 90%? 1.0

---

measuredOn: Genome polyprotein (dengue virus type 2)
Please respond with true when measured IC50 is strictly beneath 6 µM, and with false in all other cases.

Answered examples (5):
[
  {
    "structureNotation": "O=C(Nc1ccccc1)c1nc2cc(O)c(O)cc2s1",
    "assignedLabel": "false"
  },
  {
    "structureNotation": "O=C(Nc1ccccc1)[C@@H]1CCCN1C(=O)c1cc2cc(O)c(O)cc2s1",
    "assignedLabel": "true"
  },
  {
    "structureNotation": "O=C(Nc1ccccc1)c1cnc2cc(O)c(O)cc2c1",
    "assignedLabel": "true"
  },
  {
    "structureNotation": "O=C(Nc1nc2cc(O)c(O)cc2s1)c1ccc(Cl)c(Cl)c1",
    "assignedLabel": "true"
  },
  {
    "structureNotation": "O=C(Nc1ccccc1)[C@@H]1CCCN1C(=O)c1cc2c(O)cc(O)cc2o1",
    "assignedLabel": "false"
  }
]

Is IC50 strictly under 6 µM for the entry `O=C(Nc1nc2cc(O)c(O)cc2s1)c1ccccc1` ? false

IC50 under 6 µM? Item: `O=C(Nc1nc2cc(O)c(O)cc2s1)c1ccc(I)cc1` true

Lab note: IC50 threshold 6 µM. Does this compound come in strictly under it? `O=C(Nc1ccccc1)c1cc2cc(O)c(O)cc2s1` true
